Origin of the recorded values: ChEMBL document CHEMBL3621107

Tested on: M14
Experiment: Cytotoxicity against human M14 cells assessed as cell growth at 10 uM after 48 hrs by SRB assay relative to control
Assay type: functional
Conditions: M14, 48 h, read-out: Activity
Hi there, I'd appreciate the recorded growth at 10 µM for every entry that follows.
Form entry: value (%) — number only.

Requested read-out: growth at 10 µM. Entry: CCOc1cccc(Sc2cc3c(c4nsnc24)C(=O)c2ccccc2C3=O)c1 104

Which value of growth at 10 µM has been reported for O=C1c2ccccc2C(=O)c2c1cc(Sc1cc(Cl)ccc1Cl)c1nsnc21 in the records? 99

Requested field: growth at 10 µM. Item: COc1ccc(Sc2cc3c(c4nsnc24)C(=O)c2ccccc2C3=O)cc1 92.9

I am curious: what growth at 10 µM value has been reported for Cc1cc(C)cc(Sc2cc3c(c4nsnc24)C(=O)c2ccccc2C3=O)c1 ? 100

Can you look up the measured growth at 10 µM of O=C1c2ccccc2C(=O)c2c1ccc1nsnc21 for me? 74.5

Which growth at 10 µM value belongs to O=C1c2ccccc2C(=O)c2c1cc(SCc1ccccc1)c1nsnc21 ? 86.5

growth at 10 µM lookup needed for Cc1ccc(Sc2cc3c(c4nsnc24)C(=O)c2ccccc2C3=O)c(C)c1 , thanks. 101

Recorded growth at 10 µM for O=C1c2ccccc2C(=O)c2c1cc(Sc1ccccc1)c1nsnc21 , please? 106
